Below is a list of entries, each paired with its recorded DC50 value.
molecular target: SMARCA2-HiBiT HeLa cells (protein which is expressed from the SMARCA2 gene) (Homo sapiens, UniProt P51531); construct: protein which is expressed from the SMARCA2 and SMARCA4 genes; host or cells: HeLa (SMARCA2-HiBiT engineered line); assay: SMARCA2 degradation assay (HiBiT-fusion HeLa cell line, 24 h, luminescence); format: cell-based
Sequence (P51531 whole entry, the tested form may be a part): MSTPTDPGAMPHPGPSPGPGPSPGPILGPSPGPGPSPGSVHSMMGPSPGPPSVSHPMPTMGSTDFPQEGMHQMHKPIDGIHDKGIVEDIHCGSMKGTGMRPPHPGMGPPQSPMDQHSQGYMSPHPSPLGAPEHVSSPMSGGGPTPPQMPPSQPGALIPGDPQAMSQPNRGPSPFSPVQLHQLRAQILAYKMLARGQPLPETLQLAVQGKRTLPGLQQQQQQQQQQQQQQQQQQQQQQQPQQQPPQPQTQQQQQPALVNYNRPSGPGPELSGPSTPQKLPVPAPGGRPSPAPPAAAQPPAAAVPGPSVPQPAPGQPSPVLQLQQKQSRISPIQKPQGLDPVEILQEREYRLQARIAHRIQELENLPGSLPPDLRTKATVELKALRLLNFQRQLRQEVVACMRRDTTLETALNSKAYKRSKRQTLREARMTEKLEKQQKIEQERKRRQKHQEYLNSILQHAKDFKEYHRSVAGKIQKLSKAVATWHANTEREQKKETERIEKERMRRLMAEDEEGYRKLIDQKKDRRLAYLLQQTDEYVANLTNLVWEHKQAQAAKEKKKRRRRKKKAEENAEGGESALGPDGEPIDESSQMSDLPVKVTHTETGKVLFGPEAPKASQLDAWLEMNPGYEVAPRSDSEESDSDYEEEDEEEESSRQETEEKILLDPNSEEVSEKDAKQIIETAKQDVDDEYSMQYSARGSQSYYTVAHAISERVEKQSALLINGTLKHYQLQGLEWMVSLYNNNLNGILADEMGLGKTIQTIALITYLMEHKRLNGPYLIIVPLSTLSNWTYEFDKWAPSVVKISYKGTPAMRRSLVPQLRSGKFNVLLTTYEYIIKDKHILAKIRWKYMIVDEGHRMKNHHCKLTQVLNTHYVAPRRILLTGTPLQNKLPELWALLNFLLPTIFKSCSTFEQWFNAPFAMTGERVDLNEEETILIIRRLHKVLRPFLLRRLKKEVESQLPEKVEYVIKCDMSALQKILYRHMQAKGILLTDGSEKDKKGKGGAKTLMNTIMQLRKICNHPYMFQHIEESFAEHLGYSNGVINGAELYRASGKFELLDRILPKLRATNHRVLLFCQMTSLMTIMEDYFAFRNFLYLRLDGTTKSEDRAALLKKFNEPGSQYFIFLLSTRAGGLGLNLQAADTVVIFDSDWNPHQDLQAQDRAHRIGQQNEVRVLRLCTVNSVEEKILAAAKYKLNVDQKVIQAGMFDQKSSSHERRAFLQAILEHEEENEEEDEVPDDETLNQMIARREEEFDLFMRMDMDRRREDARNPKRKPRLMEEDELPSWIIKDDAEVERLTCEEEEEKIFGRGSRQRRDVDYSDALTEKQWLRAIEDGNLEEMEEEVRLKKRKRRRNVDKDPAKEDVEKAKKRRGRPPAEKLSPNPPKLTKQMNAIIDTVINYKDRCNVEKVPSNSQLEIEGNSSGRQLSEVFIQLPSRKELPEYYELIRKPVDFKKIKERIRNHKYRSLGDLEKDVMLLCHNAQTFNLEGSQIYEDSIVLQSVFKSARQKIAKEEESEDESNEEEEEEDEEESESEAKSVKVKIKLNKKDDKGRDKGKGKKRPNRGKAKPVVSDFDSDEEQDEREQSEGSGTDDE

Answered examples (5):
compound="C[C@H](O)C#Cc1nccc(N2CCCN(c3cc(-c4ccccc4O)nnc3N)CC2)n1 [Compound P-321]" reported="50 to 500 nM"
compound="CC(C)(C)OC(=O)N1CCC(C#Cc2nccc(N3CCCN(c4cc(-c5ccccc5O)nnc4N)CC3)n2)CC1 [Compound P-351]" reported="500 to 5000 nM"
compound="Nc1nnc(-c2ccccc2O)cc1N1CC2CCC(C1)N2c1ccnc(C#CCn2nnc3ccccc32)n1 [Compound P-132]" reported="500 to 5000 nM"
compound="Nc1nnc(-c2ccccc2O)cc1N1CCCN(c2ccnc(C#CCn3ccc(-c4ccccn4)n3)n2)CC1 [Compound P-138]" reported="50 to 500 nM"
compound="C[C@@H]1CCN(c2cc(-c3ccccc3O)nnc2N)CCN1c1ccc(C#N)c(C#CCN2CCC(F)(F)CC2)n1 [Compound P-416]" reported="50 to 500 nM"

Prompt: Entry Nc1nnc(-c2ccccc2O)cc1N1CCN(c2ccnc(C#CCNC(=O)c3cc4ccccc4o3)n2)CC1 [Compound P-75] has what DC50?
Completion: 50 to 500 nM

Prompt: Entry Nc1nnc(-c2ccccc2O)cc1N1CC2CN(c3ccnc(C#CCNC(=O)c4cc5ncccn5n4)n3)C2C1 (stereo not shown) [Compound P-43] has what DC50?
Completion: 500 to 5000 nM

* * *

Below is a list of entries, each paired with its recorded inhibition at 1 µM value.
target: SMARCA4-HiBiT HeLa cells (protein which is expressed from the SMARCA4 gene) (Homo sapiens, UniProt P51532); construct: protein which is expressed from the SMARCA2 and SMARCA4 genes; host or cells: HeLa (SMARCA4-HiBiT engineered line); assay: SMARCA4 degradation assay (HiBiT-fusion HeLa cell line, 24 h, luminescence); type: cell-based; conditions: @ 1 μM
Sequence (P51532 whole entry, the tested form may be a part): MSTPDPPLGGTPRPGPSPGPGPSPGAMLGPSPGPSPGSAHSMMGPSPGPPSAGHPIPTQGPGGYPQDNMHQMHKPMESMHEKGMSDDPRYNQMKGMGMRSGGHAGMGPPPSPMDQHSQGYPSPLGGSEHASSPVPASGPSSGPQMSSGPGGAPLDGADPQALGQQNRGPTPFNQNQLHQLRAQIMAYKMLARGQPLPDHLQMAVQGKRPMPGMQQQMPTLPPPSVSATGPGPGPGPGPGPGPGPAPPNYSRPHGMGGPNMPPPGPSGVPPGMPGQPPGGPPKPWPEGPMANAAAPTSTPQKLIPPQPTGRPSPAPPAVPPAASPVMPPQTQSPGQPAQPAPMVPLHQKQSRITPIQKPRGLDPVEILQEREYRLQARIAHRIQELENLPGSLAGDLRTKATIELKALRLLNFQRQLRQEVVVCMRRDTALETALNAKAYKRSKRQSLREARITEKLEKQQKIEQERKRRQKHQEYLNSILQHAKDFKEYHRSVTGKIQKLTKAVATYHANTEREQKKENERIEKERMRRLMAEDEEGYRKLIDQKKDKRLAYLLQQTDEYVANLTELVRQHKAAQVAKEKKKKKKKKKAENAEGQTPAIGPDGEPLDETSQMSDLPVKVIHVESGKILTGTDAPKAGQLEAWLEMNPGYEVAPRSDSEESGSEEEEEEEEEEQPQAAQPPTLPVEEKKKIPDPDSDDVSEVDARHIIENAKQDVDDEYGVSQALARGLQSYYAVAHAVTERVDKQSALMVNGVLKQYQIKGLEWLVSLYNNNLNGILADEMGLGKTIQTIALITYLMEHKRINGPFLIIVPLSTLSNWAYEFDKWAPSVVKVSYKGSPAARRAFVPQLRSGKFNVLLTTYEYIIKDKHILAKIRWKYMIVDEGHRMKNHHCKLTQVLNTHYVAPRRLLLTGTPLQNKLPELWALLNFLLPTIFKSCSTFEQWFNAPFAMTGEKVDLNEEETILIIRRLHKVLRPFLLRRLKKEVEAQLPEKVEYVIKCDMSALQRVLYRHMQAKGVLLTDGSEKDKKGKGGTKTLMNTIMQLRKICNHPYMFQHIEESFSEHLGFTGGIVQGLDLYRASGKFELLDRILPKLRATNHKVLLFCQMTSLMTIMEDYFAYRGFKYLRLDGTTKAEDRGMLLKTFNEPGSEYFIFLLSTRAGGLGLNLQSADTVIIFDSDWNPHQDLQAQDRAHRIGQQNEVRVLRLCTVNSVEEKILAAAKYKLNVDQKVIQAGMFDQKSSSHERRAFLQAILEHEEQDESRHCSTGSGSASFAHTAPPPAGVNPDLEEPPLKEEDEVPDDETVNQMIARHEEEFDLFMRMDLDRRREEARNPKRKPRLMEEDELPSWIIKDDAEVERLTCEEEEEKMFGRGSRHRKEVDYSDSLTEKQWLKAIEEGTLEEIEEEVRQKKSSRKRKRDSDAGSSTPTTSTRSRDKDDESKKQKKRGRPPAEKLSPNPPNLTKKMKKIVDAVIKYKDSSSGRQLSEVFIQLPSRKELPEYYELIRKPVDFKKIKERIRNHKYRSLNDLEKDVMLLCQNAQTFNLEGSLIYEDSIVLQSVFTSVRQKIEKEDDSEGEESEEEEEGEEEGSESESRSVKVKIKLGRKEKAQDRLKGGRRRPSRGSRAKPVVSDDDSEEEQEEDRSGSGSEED

Answered examples (2):
test_smiles=Nc1nnc(-c2ccccc2O)cc1N1CCCN(c2ccnc(C#CCN3CCN(C(=O)C4CC4)CC3)n2)CC1 reported="30 to 70%"
test_smiles=CO[C@@H]1CCN(CC#Cc2nccc(N3CCN(c4cc(-c5ccccc5O)nnc4N)CC[C@H]3C)n2)C1 reported="30 to 70%"

Prompt: Entry CCNC(=O)NCC#Cc1nccc(N2CCCN(c3cc(-c4ccccc4O)nnc3N)CC2)n1 has what inhibition at 1 µM?
Completion: < 30%

Prompt: Entry Nc1nnc(-c2ccccc2O)cc1N1CCCN(c2ccnc(C#Cc3cnc4cnccn34)n2)CC1 has what inhibition at 1 µM?
Completion: 30 to 70%

Prompt: Entry Nc1nnc(-c2ccccc2O)cc1N1CCCN(c2ccnc(C#CCN3CC(F)(F)C3)n2)CC1 has what inhibition at 1 µM?
Completion: 30 to 70%

Prompt: Entry C[C@@H]1CCN(c2cc(-c3ccccc3O)nnc2N)CCN1c1ccnc(C#CCN2CC(C#N)C2)n1 has what inhibition at 1 µM?
Completion: 30 to 70%

Prompt: Entry C[C@@H]1CCN(c2cc(-c3ccccc3O)nnc2N)CCN1c1nc(C#CCO)ncc1F has what inhibition at 1 µM?
Completion: < 30%

Prompt: Entry Nc1nnc(-c2ccccc2O)cc1N1CCCN(c2ccnc(C#CCN[C@H]3CCOC3)n2)CC1 has what inhibition at 1 µM?
Completion: 30 to 70%

* * *

Target: SMARCA2-HiBiT HeLa cells (protein which is expressed from the SMARCA2 gene) (Homo sapiens)
Construct: protein which is expressed from the SMARCA2 and SMARCA4 genes; host or cells: HeLa (SMARCA2-HiBiT engineered line)
Assay: SMARCA2 degradation assay (HiBiT-fusion HeLa cell line, 24 h, luminescence)
Assay type: cell-based
From the text: SMARCA2 and SMARCA4 Degradation Assay Degradation of protein which is expressed from the SMARCA2 and SMARCA4 genes was monitored using engineered HiBiT-fusion HeLa cell lines from Promega. […] 24-hours post-treatment, protein levels were quantified with the addition of HiBiT lytic buffer, LgBiT protein, and HiBiT substrate, according to manufacturer's specifications. […]
observation.type: DC50

Answered examples (5):
compound=Cc1oncc1C(=O)NCC#Cc1nccc(N2CCN(c3cc(-c4ccccc4O)nnc3N)CC2)n1 observation_type=DC50 reported="50 to 500 nM"
compound=Nc1nnc(-c2ccccc2O)cc1N1CCCC2(CCN(c3ccnc(C#CCNC(=O)c4cc5ncccn5n4)n3)CC2)C1 observation_type=DC50 reported="50 to 500 nM"
compound=CC(C)(C)OC(=O)NC1CCN(CC#Cc2nccc(N3C4CCC3CN(c3cnnc(-c5ccccc5O)c3)C4)n2)CC1 observation_type=DC50 reported="50 to 500 nM"
compound="C[C@@H]1CCN(c2cc(-c3ccccc3O)nnc2N)CCN1c1ccnc(C#CCN2CCC(C)(F)C2)n1 (stereo partly drawn)" observation_type=DC50 reported="< 50 nM"
compound=Nc1nnc(-c2ccccc2O)cc1N1CCN(c2ccnc(C#CCNC(=O)c3nc4ccccc4s3)n2)CC1 observation_type=DC50 reported="50 to 500 nM"

Prompt: Entry CN(C)CC#Cc1cc(OC2CN(c3cc(-c4ccccc4O)nnc3N)C2)ccn1 has what DC50?
Completion: < 50 nM

Prompt: Entry CC(C)(C)OC(=O)N1C2CCC1CN(CC#Cc1nccc(N3CCCN(c4cc(-c5ccccc5O)nnc4N)CC3)n1)C2 has what DC50?
Completion: 500 to 5000 nM

Prompt: Entry Nc1nnc(-c2ccccc2O)cc1N1CCCN(c2ccnc(C#CCN3CCC3)n2)CC1 has what DC50?
Completion: 500 to 5000 nM

Prompt: Entry Nc1nnc(-c2ccccc2O)cc1N1C2CCC1CN(c1ccnc(C#CCn3cncn3)n1)C2 has what DC50?
Completion: 50 to 500 nM

* * *

molecular target: SMARCA4-HiBiT HeLa cells (protein which is expressed from the SMARCA4 gene) (Homo sapiens); construct: protein which is expressed from the SMARCA2 and SMARCA4 genes; host or cells: HeLa (SMARCA4-HiBiT engineered line); assay: SMARCA4 degradation assay (HiBiT-fusion HeLa cell line, 24 h, luminescence); type: cell-based
Below is a list of entries, each paired with its recorded DC50 value.

Answered examples (3):
test_smiles=Cc1cnc(C#CCn2ccnc2)nc1N1CCN(c2cc(-c3ccccc3O)nnc2N)CC[C@H]1C reported="50 to 500 nM"
test_smiles=Cn1ccnc1C#Cc1nccc(N2CCCN(c3cc(-c4ccccc4O)nnc3N)CC2)n1 reported="500 to 5000 nM"
test_smiles=CNc1cc(N2CCCN(c3cc(-c4ccccc4O)nnc3N)CC2)nc(C#CCNC(=O)c2nn(C)c(C)c2C)n1 reported="500 to 5000 nM"

Field: next compound
Prompt: Entry NCC#Cc1nccc(N2CCC3(CC2)CCN(c2cc(-c4ccccc4O)nnc2N)CC3)n1 has what DC50?
Completion: 500 to 5000 nM

* * *

biological target: SMARCA4-HiBiT HeLa cells (protein which is expressed from the SMARCA4 gene) (Homo sapiens, UniProt P51532); construct: protein which is expressed from the SMARCA2 and SMARCA4 genes; host or cells: HeLa (SMARCA4-HiBiT engineered line); assay: SMARCA4 degradation assay (HiBiT-fusion HeLa cell line, 24 h, luminescence); assay type: cell-based
Below is a list of entries, each paired with its recorded DC50 value.

molecule="C[C@H]1CCN(c2cc(-c3ccccc3O)nnc2N)CCN1c1ccc(C#N)c(C#CCN(C)CC(F)(F)F)n1 [Compound P-415]" reported="50 to 500 nM"
molecule="Nc1nnc(-c2ccccc2O)cc1N1CC2CC(C1)N2c1ccnc(C#CCN2CC(F)(F)C2)n1 [Compound P-204]" reported="500 to 5000 nM"
molecule="C[C@@H]1CCN1CC#Cc1cc(N2CCN(c3cc(-c4ccccc4O)nnc3N)CC[C@H]2C)ccn1 [Compound P-420]" reported="< 50 nM"

Field: next molecule
Prompt: Entry CN(C)CC#Cc1nccc(N2C[C@@H]3CN(c4cc(-c5ccccc5O)nnc4N)C[C@@H]3C2)n1 [Compound P-181] has what DC50?
Completion: < 50 nM

* * *

target: SMARCA4-HiBiT HeLa cells (protein which is expressed from the SMARCA4 gene) (Homo sapiens); construct: protein which is expressed from the SMARCA2 and SMARCA4 genes; host or cells: HeLa (SMARCA4-HiBiT engineered line); assay: SMARCA4 degradation assay (HiBiT-fusion HeLa cell line, 24 h, luminescence); format: cell-based
observation.type: DC50

Answered examples (3):
compound="Nc1nnc(-c2ccccc2O)cc1N1CCCN(c2ccnc(C#CCN3CCC3)n2)CC1 [Compound P-308]" reported="500 to 5000 nM"
compound="Nc1nnc(-c2ccccc2O)cc1N1CCN(c2ccnc(C#CCNC(=O)c3ccncc3)n2)CC1 [Compound P-56]" reported="50 to 500 nM"
compound="C[C@@H]1CCN(c2cc(-c3ccccc3O)nnc2N)CCN1c1ccc(C#N)c(C#CCN2CC(F)(F)C2)n1 [Compound P-412]" reported="50 to 500 nM"

Field: next compound
Prompt: Entry Nc1nnc(-c2ccccc2O)cc1N1CCC2C1CCN2c1ccnc(C#CCNC(=O)c2cc3ncccn3n2)n1 (stereo not shown) [Compound P-77] has what DC50?
Completion: 50 to 500 nM

These data points were gathered from patent US20260265238A1.
